Reported pKi values are given for each entry in this list.
# Assay name: Inhibition of HCV NS3/4A protease
# Set-up: species or system Hepacivirus hominis
pKi: −log10 of the molar value.
Measure: pKi

{"Compound": "CCCC[C@H](NC(=O)[C@@H]1C2C(CN1C(=O)[C@@H](NC(=O)NC1([C@@H]3CCS3(=O)=O)CCCCC1)C(C)(C)C)C2(C)C)C(=O)C(=O)NC1CC1 (single isomer, unassigned)", "Reported result": 8.30}
{"Compound": "CC1(NC(=O)N[C@H](C(=O)N2C[C@@H]3[C@H]([C@H]2C(=O)NC(CC2CCC2)C(=O)C(N)=O)C3(C)C)C(C)(C)C)CCCCC1 (stereo partly drawn)", "Reported result": 8.05}
{"Compound": "CCCC[C@H](NC(=O)[C@@H]1C2C(CN1C(=O)[C@@H](NC(=O)NC1([C@H]3CCCS3(=O)=O)CCCCC1)C1(C)CCCCC1)C2(C)C)C(=O)C(=O)NC1CC1 (single isomer, unassigned)", "Reported result": 8.52}
{"Compound": "CC1(C)C2CN(C(=O)[C@@H](NC(=O)NC3([C@H]4CCCCS4(=O)=O)CCCCC3)C(C)(C)C)[C@H](C(=O)N[C@@H](CCC3CC3)C(=O)C(=O)NC3CC3)C21 (single isomer, unassigned)", "Reported result": 8.22}
{"Compound": "CCCC[C@H](NC(=O)[C@@H]1C2C(CN1C(=O)[C@@H](NC(=O)NC1([C@@H]3CCCS3(=O)=O)CCCCC1)C(C)(C)C)C2(C)C)C(=O)C(=O)NC1CC1 (single isomer, unassigned)", "Reported result": 8.40}
{"Compound": "CCC[C@H](NC(=O)[C@@H]1C2C(CN1C(=O)[C@@H](NC(=O)NC1([C@H]3CCCS3(=O)=O)CCCCC1)C(C)(C)C)C2(C)C)C(=O)C(=O)NC1CC1 (single isomer, unassigned)", "Reported result": 8.40}
{"Compound": "CCC[C@H](NC(=O)[C@@H]1C2C(CN1C(=O)[C@@H](NC(=O)NC1([C@H]3CCCS3(=O)=O)CCCCC1)C1(C)CCCCC1)C2(C)C)C(=O)C(=O)NC1CC1 (single isomer, unassigned)", "Reported result": 8.70}
{"Compound": "C=CCNC(=O)C(=O)[C@H](CCC1CC1)NC(=O)[C@@H]1C2C(CN1C(=O)[C@@H](NC(=O)NC1([C@H]3CCCS3(=O)=O)CCCCC1)C(C)(C)C)C2(C)C (single isomer, unassigned)", "Reported result": 8.40}
{"Compound": "CCCC[C@H](NC(=O)[C@@H]1C2C(CN1C(=O)[C@@H](NC(=O)NC1([C@H]3CCS3(=O)=O)CCCCC1)C(C)(C)C)C2(C)C)C(=O)C(=O)NC1CC1 (single isomer, unassigned)", "Reported result": 8.00}
{"Compound": "CCCC[C@H](NC(=O)[C@@H]1C2C(CN1C(=O)[C@@H](NC(=O)NC1([C@@H]3CCCCS3(=O)=O)CCCCC1)C(C)(C)C)C2(C)C)C(=O)C(=O)NC1CC1 (single isomer, unassigned)", "Reported result": 7.96}
{"Compound": "CCC[C@H](NC(=O)[C@@H]1[C@H]2[C@@H](CN1C(=O)[C@@H](NC(=O)NC1([C@H]3CCCCS3(=O)=O)CCCCC1)C(C)(C)C)C2(C)C)C(=O)C(=O)NC1CC1", "Reported result": 7.92}
{"Compound": "C=CCNC(=O)C(=O)[C@H](CCC1CC1)NC(=O)[C@@H]1[C@H]2[C@@H](CN1C(=O)[C@@H](NC(=O)NC1([C@H]3CCCCS3(=O)=O)CCCCC1)C(C)(C)C)C2(C)C", "Reported result": 8.40}
{"Compound": "CCCC[C@H](NC(=O)[C@@H]1[C@H]2[C@@H](CN1C(=O)[C@@H](NC(=O)NC1([C@H]3CCCCS3(=O)=O)CCCCC1)C(C)(C)C)C2(C)C)C(=O)C(=O)NC1CC1", "Reported result": 8.00}
